Measured composite z-score of individual entries
# test-details: small-molecule microarray binders of probe aEGFR, primary screen, biochemical, biotinylated probe, 635/667 nm fluorescence (AID 1097);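 further: probe is a biotinylated anti-EGFR antibody binding compounds printed on slides; score combines fluorescence near 667 nm and signal to noise of each spot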
# particulars: higher = more signal
endpoint-name: composite z-score

structure-as-smiles: COc1cccc(/C=C/C=O)c1
result-value: 0.198
--
structure-as-smiles: CCCCCCc1nc(C2CC2)cc2c1[Si](C(C)C)(C(C)C)OC2
result-value: -0.228
--
structure-as-smiles: C=C(/C(=C/C[C@@H](OC(C)=O)c1cccc(OCCO)c1)c1cc(C(=O)OC)ccc1OC)C(C)C
result-value: -0.0987
--
structure-as-smiles: CCOC(=O)C[C@H]1[C@H](OC(=O)c2ccccc2-c2ccccc2)[C@@H](NC(=O)c2ccc(-c3ccccc3)cc2)c2cc(OCCCO)ccc2N1C(=O)c1ccc2ccccc2n1
result-value: 0.2
--
structure-as-smiles: COCCOC(=O)N1C(=O)[C@@]2(c3cc(C#CC4=CCCCC4)ccc31)[C@H](C(N)=O)[C@H]1C(=O)O[C@H](c3ccccc3)[C@H](c3ccccc3)N1[C@@H]2c1ccccc1OCCO
result-value: -0.0056
